target: SMARCA2 (Homo sapiens); construct: endogenous in cells; assay: SMARCA2 Cellular Degradation Assay (Western blot analysis on Jess platform); type: cell-based; details: cellular degradation
MEASURED_PROPERTY: Dmax (%)
Number in %, nothing else.

Some molecules with known Dmax results, for comparison:
molecule="O=C1CC[C@H](c2ccc(N3CCC(CN4CCCC4C4CCCCN4C(=O)C4(c5ccccc5)CCN(c5cnnc(-c6ccccc6O)c5)CC4)CC3)cc2)C(=O)N1 (some centres unmarked)" test_system="SMARCA2 (Homo sapiens)" measured_property=Dmax experimental_value=28.7
molecule="O=C1CCC(c2ccc(OC3CCN(C(=O)C4(c5ccccc5)CCN(c5cnnc(-c6ccccc6O)c5)CC4)CC3)cc2)C(=O)N1 (racemic)" test_system="SMARCA2 (Homo sapiens)" measured_property=Dmax experimental_value=16.4
molecule="O=C1CC[C@H](c2ccc(N3CCC(CN4CC[C@H]5[C@H](CCN5C(=O)C5(c6ccccc6)CCN(c6cnnc(-c7ccccc7O)c6)CC5)C4)CC3)cc2)C(=O)N1 (mixture of isomers)" test_system="SMARCA2 (Homo sapiens)" measured_property=Dmax experimental_value=75
molecule=O=C1CC[C@H](c2ccc(N3CCC(C(=O)N4CCC5(CC4)CN(CC4(c6ccccc6)CCN(c6cnnc(-c7ccccc7O)c6)CC4)C5)CC3)cc2)C(=O)N1 test_system="SMARCA2 (Homo sapiens)" measured_property=Dmax experimental_value=85
molecule=O=C1CC[C@H](c2ccc(N3CCC(CN4CC5(C4)CN(C(=O)C4(C6CC6)CCN(c6cnnc(-c7ccccc7O)c6)CC4)C5)CC3)cc2)C(=O)N1 test_system="SMARCA2 (Homo sapiens)" measured_property=Dmax experimental_value=56.5
molecule="O=C1CCC(c2c(F)cc(N3CCC(CN4CC[C@@H](NC(=O)C5(c6ccccc6)CCN(c6cnnc(-c7ccccc7O)c6)CC5)CC45CCC5)CC3)cc2F)C(=O)N1 (mixture of isomers)" test_system="SMARCA2 (Homo sapiens)" measured_property=Dmax experimental_value=90.6

Input line: Looking for the measured Dmax of CN(CC1(c2ccccc2)CCN(c2cnnc(-c3ccccc3O)c2)CC1)C1CCN(C(=O)CN2CCC(c3ccc(C4CCC(=O)NC4=O)cc3)CC2)CC1 (racemic) , can you help?
Output line: 86.5

Input line: Then this molecule: Cc1ccccc1C1(C(=O)N2CC3(CN(CC4CCN(c5ccc(C6CCC(=O)NC6=O)cc5)CC4)C3)C2)CCN(c2cnnc(-c3ccccc3O)c2)CC1 (racemic)
Output line: 78.9

Input line: Then this molecule: O=C1CC[C@H](c2ccc(N3CC[C@]4(C3)C[C@@H](N3CC5(CCN(C(=O)C6(c7ccccc7)CCN(c7cnnc(-c8ccccc8O)c7)CC6)CC5)C3)C4)cc2)C(=O)N1 (racemic)
Output line: 78.2

Input line: Then this molecule: CCN(C(=O)C1(c2ccccc2)CCN(c2cnnc(-c3ccccc3O)c2)CC1)C1CCN(C(=O)CN2CCN(c3ccc(C4CCC(=O)NC4=O)cc3)CC2)CC1 (racemic)
Output line: 88.8

Input line: Then this molecule: Cc1ccccc1OC1(C(=O)N(C)C2CCN(C(=O)CN3CCC(c4ccc([C@@H]5CCC(=O)NC5=O)cc4)CC3)CC2)CCN(c2cnnc(-c3ccccc3O)c2)CC1 (racemic)
Output line: 88.6

====

biological target: SMARCA2 (Homo sapiens); construct: endogenous in cells; assay: SMARCA2 Cellular Degradation Assay (Western blot analysis on Jess platform); assay type: cell-based; settings: cellular degradation
MEASURED_PROPERTY: DC50 (nM)
Number in nM, nothing else.

Some compounds with known DC50 results, for comparison:
compound="O=C1CC[C@H](c2ccc(N3CCC(CNC4CC5CCCC(C4)C5NC(=O)C4(c5ccccc5)CCN(c5cnnc(-c6ccccc6O)c5)CC4)CC3)cc2)C(=O)N1 (some centres unmarked)" test_system="SMARCA2 (Homo sapiens)" measured_property=DC50 unit_label=nM experimental_value=26.4
compound="CN(CC1(c2ccccc2)CCN(c2cnnc(-c3ccccc3O)c2)CC1)C1CCN(C(=O)CN2CCC(c3ccc(C4CCC(=O)NC4=O)cc3)CC2)CC1 (racemic)" test_system="SMARCA2 (Homo sapiens)" measured_property=DC50 unit_label=nM experimental_value=13.3
compound="Cc1ccnn1C1(C(=O)N(C)C2CCN(CCC3CCN(c4ccc(C5CCC(=O)NC5=O)c(F)c4)CC3)CC2)CCN(c2cnnc(-c3ccccc3O)c2)CC1 (racemic)" test_system="SMARCA2 (Homo sapiens)" measured_property=DC50 unit_label=nM experimental_value=3.33
compound="CN(C(=O)C1(c2cc3ccccn3n2)CCN(c2cnnc(-c3ccccc3O)c2)CC1)C1CCN(CC2CCN(c3ccc(C4CCC(=O)NC4=O)cc3)CC2)CC1 (racemic)" test_system="SMARCA2 (Homo sapiens)" measured_property=DC50 unit_label=nM experimental_value=3.14

Input line: So what DC50 did Cc1cc(C2(C(=O)N(C)C3CCN(CC4CCN(c5ccc(C6CCC(=O)NC6=O)cc5)CC4)CC3)CCN(c3cnnc(-c4ccccc4O)c3)CC2)on1 (racemic) get with SMARCA2 (Homo sapiens)?
Output line: 8.55

Input line: Then this compound: CN(C(=O)C1(c2ccccc2)CCN(c2cnnc(-c3ccccc3O)c2)CC1)C1CCN(CC2CCN(c3cccc([C@@H]4CCC(=O)NC4=O)c3)CC2)CC1 (racemic)
Output line: 26.3

====

molecular target: SMARCA2 (Homo sapiens, UniProt P51531); construct: endogenous in cells; test: SMARCA2 Cellular Degradation Assay (Western blot analysis on Jess platform); type: cell-based; conditions: ratio DC50 SMARCA4 / DC50 SMARCA2
Sequence (P51531 whole entry, species assumed): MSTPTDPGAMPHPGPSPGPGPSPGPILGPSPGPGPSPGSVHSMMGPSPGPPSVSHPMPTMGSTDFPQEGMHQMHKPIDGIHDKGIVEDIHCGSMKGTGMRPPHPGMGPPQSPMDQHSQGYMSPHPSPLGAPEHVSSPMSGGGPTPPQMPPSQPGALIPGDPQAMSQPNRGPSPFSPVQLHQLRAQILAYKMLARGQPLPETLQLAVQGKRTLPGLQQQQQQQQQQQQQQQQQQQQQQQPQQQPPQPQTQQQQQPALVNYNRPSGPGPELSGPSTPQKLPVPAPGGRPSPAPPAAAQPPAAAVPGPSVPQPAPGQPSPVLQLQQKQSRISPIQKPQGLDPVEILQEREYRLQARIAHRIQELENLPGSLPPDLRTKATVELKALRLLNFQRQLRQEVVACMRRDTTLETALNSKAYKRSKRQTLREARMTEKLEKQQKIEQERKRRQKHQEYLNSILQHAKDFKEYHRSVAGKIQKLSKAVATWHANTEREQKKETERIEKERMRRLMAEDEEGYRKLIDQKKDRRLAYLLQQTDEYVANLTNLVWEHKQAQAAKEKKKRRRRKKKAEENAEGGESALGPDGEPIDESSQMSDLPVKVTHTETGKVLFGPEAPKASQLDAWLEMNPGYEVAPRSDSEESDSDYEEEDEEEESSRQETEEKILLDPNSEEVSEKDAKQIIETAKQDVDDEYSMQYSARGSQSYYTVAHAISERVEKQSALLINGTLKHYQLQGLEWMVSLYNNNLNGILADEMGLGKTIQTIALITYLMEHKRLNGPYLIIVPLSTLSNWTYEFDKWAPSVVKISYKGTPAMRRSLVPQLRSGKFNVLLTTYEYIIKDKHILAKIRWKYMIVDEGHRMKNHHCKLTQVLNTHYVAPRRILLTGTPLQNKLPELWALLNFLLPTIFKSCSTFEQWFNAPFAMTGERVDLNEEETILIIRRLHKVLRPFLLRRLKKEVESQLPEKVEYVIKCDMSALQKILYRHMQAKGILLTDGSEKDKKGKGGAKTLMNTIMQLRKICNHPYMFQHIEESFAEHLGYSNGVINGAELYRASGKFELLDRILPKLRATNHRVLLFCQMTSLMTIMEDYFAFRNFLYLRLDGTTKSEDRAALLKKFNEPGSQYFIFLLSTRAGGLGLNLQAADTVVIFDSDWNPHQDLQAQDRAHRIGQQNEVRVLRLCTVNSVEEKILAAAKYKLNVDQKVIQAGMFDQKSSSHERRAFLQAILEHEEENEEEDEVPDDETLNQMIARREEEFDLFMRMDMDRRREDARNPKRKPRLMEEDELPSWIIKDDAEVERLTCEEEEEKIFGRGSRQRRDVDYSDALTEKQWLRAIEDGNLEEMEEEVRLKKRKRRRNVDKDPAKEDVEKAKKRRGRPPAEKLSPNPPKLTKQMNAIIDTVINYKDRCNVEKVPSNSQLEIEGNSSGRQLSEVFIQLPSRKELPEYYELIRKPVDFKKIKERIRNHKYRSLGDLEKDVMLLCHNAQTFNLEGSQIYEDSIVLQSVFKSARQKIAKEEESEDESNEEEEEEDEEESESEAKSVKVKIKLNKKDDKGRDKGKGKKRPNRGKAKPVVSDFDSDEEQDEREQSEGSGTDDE
MEASURED_PROPERTY: Fold Selectivity SMARCA4/2
Enter the number alone.

compound="Cc1cccc(C2(C(=O)N3CC4(CN(CC5CCN(c6ccc(C7CCC(=O)NC7=O)cc6)CC5)C4)C3)CCN(c3cnnc(-c4ccccc4O)c3)CC2)c1 (racemic)" experimental_value=6.99
compound="CN(C(=O)C1(c2cc3ccccn3n2)CCN(c2cnnc(-c3ccccc3O)c2)CC1)C1CCN(CC2CCN(c3ccc(C4CCC(=O)NC4=O)cc3)CC2)CC1 (racemic)" experimental_value=7
compound="O=C1CCC(c2ccc(N3CCC(CN4CC5(C4)CN(C(=O)C4(c6cccc(Cl)c6)CCN(c6cnnc(-c7ccccc7O)c6)CC4)C5)CC3)cc2)C(=O)N1 (racemic)" experimental_value=7.24
compound="O=C1CCC(c2ccc(N3CCC(CN4CC5(C4)CN(C(=O)C4(c6cccnc6)CCN(c6cnnc(-c7ccccc7O)c6)CC4)C5)CC3)cc2)C(=O)N1 (racemic)" experimental_value=212.72

Input line: Looking for the measured Fold Selectivity SMARCA4/2 of Cn1c(=O)n(C2CCC(=O)NC2=O)c2ccc(N3CCC(CN4CCC5(CC4)CN(C(=O)C4(c6ccccc6)CCN(c6cnnc(-c7ccccc7O)c6)CC4)C5)CC3)cc21 (racemic) , can you help?
Output line: 4

====

Target: SMARCA2 (Homo sapiens, UniProt P51531)
Construct: endogenous in cells
Test: SMARCA2 Cellular Degradation Assay (Western blot analysis on Jess platform)
Format: cell-based
Settings: cellular degradation
Procedure: SMARCA2 Cellular Degradation Assay Western Blot Analysis for SMARCA2 Degradation […] Following normalization, the percentage of SMARCA2 remaining per sample relative to the vehicle control was calculated as follows: […]
Sorting guide: entries reporting Dmax beneath 80% go in the Satisfied pile, the rest go in the Not satisfied pile.

Example entries and their recorded answers appear below.
molecule="O=C1CC[C@H](c2ccc(OCC3CCN(CC4CCN(C(=O)C5(c6ccccc6)CCN(c6cnnc(-c7ccccc7O)c6)CC5)CC4)CC3)cc2)C(=O)N1 [Example 36]" answer_label=Satisfied
molecule="O=C1CC[C@H](c2ccc(N3CCC(CN4CC(F)C5(C4)CN(C(=O)C4(c6ccccc6)CCN(c6cnnc(-c7ccccc7O)c6)CC4)C5)CC3)cc2)C(=O)N1 (some centres unmarked) [Example 25]" answer_label=Satisfied

Input line: Check if Dmax falls below 80% for O=C1CC[C@H](c2ccc(N3CCC(CN4CC(F)(F)C5(C4)CN(C(=O)C4(c6ccccc6)CCN(c6cnnc(-c7ccccc7O)c6)CC4)C5)CC3)cc2)C(=O)N1 [Example 52] .
Output line: Satisfied

Input line: Then this molecule: CC(C)c1cc(C2(C(=O)N(C)C3CCN(CC4CCN(c5ccc(C6CCC(=O)NC6=O)cc5)CC4)CC3)CCN(c3cnnc(-c4ccccc4O)c3)CC2)no1 (racemic) [Example 98]
Output line: Not satisfied

Input line: Then this molecule: COc1cccc(C2(C(=O)N(C)C3CCN(CCC4CCN(c5ccc([C@H]6CCC(=O)NC6=O)cc5)CC4)CC3)CCN(c3cnnc(-c4ccccc4O)c3)CC2)c1 [Example 139]
Output line: Not satisfied

Input line: Then this molecule: C[C@@H](C1CCN(c2ccc([C@H]3CCC(=O)NC3=O)cn2)CC1)N1CC2(CN(C(=O)C3(c4ccccc4)CCN(c4cnnc(-c5ccccc5O)c4)CC3)C2)C1 (racemic) [Example 141]
Output line: Not satisfied
